- Tested on: carrageenin-induced rat foot edema
- METHOD NOTES: carrageenin-induced rat foot edema test
- Format: in vivo, rat (male albino)
- MEASUREMENT CONDITIONS: oral dosage of 33 mg./kg.; 3 hours after carrageenin
Rule: yes for % Inhibition of Edema not less than 20%, no for anything less.

Before answering, review these 3 worked examples.
OCCSCc1ccncc1 [4-(2-Hydroxyethylthiomethyl)pyridine]: yes
OCCSCc1ccncn1 [4-(2-hydroxyethylthiomethyl)pyrimidine, 4-(2-Hydroxyethylthiomethyl)pyrimidine]: no
OCC(O)CSCc1ccncc1 (centres unmarked) [drawing 29]: no

As a next step, examine the compound that follows.
Query: Would you say CC(O)CSCc1ccncc1 (centres unmarked) [drawing 31] shows % Inhibition of Edema at minimum 20%?
Reply: no
